GI50 values by entry
# TEST_SUMMARY: Cytotoxicity against HEK293H cells after 24 hrs by CellTiter-Glo assay
# Type: cell-based
# EXPERIMENTAL_SETUP: human
MEASUREMENT_LABEL: GI50

MOLECULE: COC(=O)CCCN1C(=O)NC(c2ccc(Cl)cc2Cl)C(C(=O)OCc2ccccc2)=C1C (stereo not drawn)
MEASUREMENT_LABEL: GI50
TEST_RESULT: > 300 µM

MOLECULE: C/C=C(/C)C(=O)O[C@H]1C(C)=C2[C@H]([C@@H]1OC(=O)CCCCCCC)[C@@](C)(OC(C)=O)C[C@H](OC(=O)CCC)[C@@]1(O)[C@H]2OC(=O)[C@@]1(C)O
MEASUREMENT_LABEL: GI50
TEST_RESULT: 24 µM

MOLECULE: CC1=C(C(=O)OCc2ccccc2)C(c2ccc(Cl)cc2Cl)NC(=O)N1CCCC(=O)OCC#N (stereo not drawn)
MEASUREMENT_LABEL: GI50
TEST_RESULT: > 100 µM

MOLECULE: CC1=C(C(=O)OCc2ccccc2)C(c2ccc(Cl)cc2Cl)NC(=O)N1CCCC(=O)OCc1ccccc1 (stereo not drawn)
MEASUREMENT_LABEL: GI50
TEST_RESULT: > 100 µM

MOLECULE: CC1=C(C(=O)OCc2ccccc2)C(c2ccc(Cl)cc2Cl)NC(=O)N1CCCC(=O)OCc1ccccn1 (stereo not drawn)
MEASUREMENT_LABEL: GI50
TEST_RESULT: > 100 µM

MOLECULE: CC1=C(C(=O)OCc2ccccc2)C(c2ccc(Cl)cc2Cl)NC(=O)N1CCCCC(=O)O (stereo not drawn)
MEASUREMENT_LABEL: GI50
TEST_RESULT: > 100 µM

MOLECULE: CC1=C(C(=O)OCc2ccccc2)C(c2ccc(Cl)cc2Cl)NC(=O)N1CCCC(=O)OCCN1CCOCC1 (stereo not drawn)
MEASUREMENT_LABEL: GI50
TEST_RESULT: > 100 µM

MOLECULE: COCCOC(=O)CCCN1C(=O)NC(c2ccc(Cl)cc2Cl)C(C(=O)OCc2ccccc2)=C1C (stereo not drawn)
MEASUREMENT_LABEL: GI50
TEST_RESULT: > 100 µM
